meta.source: patent US6737383B1

# System: corn
# protocol.text: Test B pre/postemergence corn
# Type: in vivo, Zea mays
# run.conditions: Preemergence, Rate 62 g/ha; scale 0 to 10 (0 no effect, 10 complete control)
measured.attribute: Corn plant response rating

>>> result("CCOCn1c(=O)on(C(=O)N(c2ccc(Cl)cc2)C(C)C)c1=O [Compound 534]")
0
>>> result("CCOC(Cn1c(=O)on(C(=O)N(c2ccc(F)cc2)C(C)C)c1=O)OCC [Compound 629]")
1
>>> result("CC(C)N(C(=O)n1oc(=O)n(C(C)C)c1=O)c1ccc(F)cc1F [Compound 109]")
0

* * *

# Test system: duck salad
# protocol.text: Test B flood test duck salad
# Assay type: in vivo, Heteranthera limosa
# run.conditions: Rate 250 g/ha; Pre-emergence (flood test species); scale 0 to 10, 0 is no effect, 10 is complete control
measured.attribute: Ducksalad plant response rating

>>> numeric_value("CCOP(=O)(Cn1c(=O)on(C(=O)N(c2ccc(F)cc2)C(C)C)c1=O)OCC [Compound 587]")
0
>>> numeric_value("CC[Si](C)(C)Cn1c(=O)on(C(=O)N(c2ccc(F)cc2)C(C)C)c1=O [Compound 459]")
0
>>> numeric_value("CC(C)N(C(=O)n1oc(=O)n(CC(=O)C2CCC2)c1=O)c1ccc(F)cc1 [Compound 640]")
0
>>> numeric_value("CCCCCCn1c(=O)on(C(=O)N(c2ccccc2)C(C)C)c1=O [Compound 558]")
0
>>> numeric_value("CC(C)N(C(=O)n1oc(=O)n(C(C)C2CC2)c1=O)c1ccccc1 (centres unmarked) [Compound 699]")
9
>>> numeric_value("C=CC(OC)n1c(=O)on(C(=O)N(c2ccc(F)cc2)C(C)C)c1=O (centres unmarked) [Compound 452]")
0
>>> numeric_value("CC(C)N(C(=O)n1oc(=O)n(CC2=CCCCC2)c1=O)c1ccccc1 [Compound 496]")
0
>>> numeric_value("C=CCn1c(=O)on(C(=O)N(c2c(C)cccc2C)C(C)COC)c1=O (centres unmarked) [Compound 600]")
0

* * *

# System: rape
# protocol.text: Test B pre/postemergence rape
# Type: in vivo, Brassica napus
# run.conditions: Preemergence, Rate 125 g/ha; scale 0 to 10, 0 is no effect, 10 is complete control
measured.attribute: Rape plant response rating

>>> numeric_value("CC(C)C(=O)Cn1c(=O)on(C(=O)N(c2ccc(F)cc2F)C(C)C)c1=O [Compound 486]")
2
>>> numeric_value("CCOCn1c(=O)on(C(=O)N(c2ccc(Cl)cc2)C(C)C)c1=O [Compound 534]")
6
>>> numeric_value("CC(C)=CCn1c(=O)on(C(=O)N(c2ccc(F)cc2F)C(C)C)c1=O [Compound 515]")
4
>>> numeric_value("Cc1noc(C)c1Cn1c(=O)on(C(=O)N(c2ccc(F)cc2F)C(C)C)c1=O [Compound 510]")
5

* * *

# Tested on: sugar beet
# protocol.text: Test B pre/postemergence sugar beet
# Format: in vivo, Beta vulgaris
# run.conditions: Postemergence, Rate 500 g/ha; scale of 0 to 10 where 0 is no effect and 10 is complete control
measured.attribute: Sugarbeets plant response rating

>>> numeric_value("CC1CC1Cn1c(=O)on(C(=O)N(c2ccc(F)cc2)C(C)C)c1=O (stereo not drawn) [Compound 402]")
2
>>> numeric_value("CC(C)N(C(=O)n1oc(=O)n(CCC#N)c1=O)c1ccccc1 [Compound 436]")
0
>>> numeric_value("Cc1nc(Cl)sc1C(C)n1c(=O)on(C(=O)N(c2ccccc2)C(C)C)c1=O (stereo not drawn) [Compound 407]")
0
>>> numeric_value("Cc1nc(Cl)sc1C(C)n1c(=O)on(C(=O)N(c2ccc(F)cc2)C(C)C)c1=O (stereo not drawn) [Compound 401]")
0
>>> numeric_value("CCN(C(=O)n1oc(=O)n(C2CCCCCC2)c1=O)C1CCCCC1 [Compound 429]")
0
>>> numeric_value("CCOP(=O)(OCC)C(C)n1c(=O)on(C(=O)N(c2ccccc2)C(C)C)c1=O (stereo not drawn) [Compound 448]")
0
